Listing of recorded Lysis by entry.
Assay: Percentage platelet cell lysis at 33 uM measured by turbidimetry.
Assay type: functional, Bos taurus
outcome measure: Lysis

In [3]: df
Out[3]:
                                    compound  endpoint_result
 0  CCCCCCCCCCCCCCCCCC(=O)c1c(C)c(CCC(=O)O)n(CCCCCC(=O)N(C)C)c1C              67%
 1  CCCCCCCCCCCCCCCCCC(=O)c1c(Cc2ccccc2)c(CC(=O)O)n(C)c1C              22%
 2  CCCCCCCCCCCCCCCCCC(=O)c1c(C)c(CCC(=O)O)n(Cc2ccc(C(=O)N(C)C)cc2)c1C              42%
 3  CCCCCCCCCCCCCCCCCC(=O)c1c(C)c(CCC(=O)O)n(Cc2ccc(Cl)cc2)c1C              13%
 4  CCCCCCCCCCCC(=O)c1c(C)c(CCC(=O)O)n(CCCCCCCC(=O)O)c1C               0%
 5  CCCCCCCCCCCCCCCCCC(=O)c1c(C)c(CC(=O)O)n(CCCCCCCCCCCC)c1C               0%
 6  CCCCCCCCCCCCCCCCCC(=O)c1c(C)c(CCC(=O)O)n(Cc2ccc(C(=O)O)cc2)c1C              57%
 7  CCCCC/C=C\C/C=C\C/C=C\C/C=C\CCCC(=O)C(F)(F)F [ARACHIDONYL TRIFLUOROMETHYLKETONE]              31%
 8  CCCCCCCCCCCC(=O)c1c(C)c(CCC(=O)O)n(CCC(=O)O)c1C               0%
 9  CCCCCCCCCCCCCCCCCC(=O)c1c(C)c(CC(=O)O)n(CCCCCC)c1C              37%
10  CCCCCCCCCCCC(=O)c1c(C)c(CCC(=O)O)n(CCCCCC(=O)O)c1C               0%
11  CCCCCCCCCCCC(=O)c1c(C)c(CCC(=O)O)n(CCCCCCC(=O)O)c1C               0%
12  CCCCCCCCCCCCCCCCCC(=O)c1c(C)c(CCC(=O)O)n(Cc2ccc(C(F)(F)F)cc2)c1C              13%
13  CCCCCCCCCCCCCCCCCC(=O)c1c(C)c(CCC(=O)O)n(Cc2ccc(C)cc2)c1C              14%
14  CCCCCCCCCCCCCCCCCC(=O)c1c(C)c(CCC(=O)O)n(Cc2ccc(O)cc2)c1C               0%
15  CCCCCCCCCCCCCCCCCC(=O)c1c(C)c(CCC(=O)O)n(CCCCCC)c1C              10%
16  CCCCCCCCCCCC(=O)c1c(C)c(CC(=O)O)n(CCCCCCCC(=O)O)c1C               0%
17  CCCCCCCCCCCCCCCCCC(=O)c1c(C)c(CCC(=O)O)n(CC)c1C               0%
18  CCCCCCCCCCCCCCCCCC(=O)c1c(Cc2ccccc2)c(CC(=O)O)n(Cc2ccccc2)c1C              24%
19  CCCCCCCCCCCCCCCCCC(=O)c1c(C)c(CC(=O)O)n(Cc2ccccc2)c1C              32%
20  CCCCCCCCCCCCCCCCCC(=O)c1cc(CC(=O)O)n(C)c1               0%
21  CCCCCCCCCCCCCCCCCC(=O)c1cc(CCC(=O)O)n(C)c1               0%
22  CCCCCCCCCCCCCCCCCC(=O)c1c(CCCCCCCCCCCC)c(CC(=O)O)n(C)c1C               0%
23  CCCCCCCCCCCC(=O)c1c(C)c(CCC(=O)O)n(CCCCC(=O)O)c1C               0%
24  CCCCCCCCCCCCCCCCCC(=O)c1c(C)c(CC(=O)O)n(Cc2ccc(C)cc2)c1C              29%
25  CCCCCCCCCCCC(=O)c1c(C)c(CC(=O)O)n(CCCCCCCCC(=O)O)c1C              21%
26  CCCCCCCCCCCCCCCCCC(=O)c1c(C)c(CC(=O)O)n(C)c1CCCCCCCCCCCC               0%
27  CCCCCCCCCCCCCCCCCC(=O)c1c(C)c(CC(=O)O)n(C)c1Cc1ccccc1               0%
28  CCCCCCCCCCCCCCCCCC(=O)c1c(C)c(CC(=O)O)n(C)c1C               0%
29  CCCCCCCCCCCCCCCCCC(=O)c1c(C)c(CCC(=O)O)n(CCC)c1C               0%
30  CCCCCCCCCCCCCCCCCC(=O)c1c(C)c(CCC(=O)O)n(Cc2ccc(C(N)=O)cc2)c1C               0%
31  CCCCCCCCCCCC(=O)c1c(C)c(CC(=O)O)n(CCCCCCC(=O)O)c1C               0%
32  CCCCCCCCCCCCCCCCCC(=O)c1c(C)c(CCC(=O)O)n(Cc2ccc(C#N)cc2)c1C              26%
